A collection of compounds and their measured solubility at 10000 µM
assay: physchem; conditions: acetonitrile/water mixture
Description: Solubility of the compound in acetonitrile/water mixture at 10 mM measured after 24 by HPLC-UV method
MEASURED_PARAMETER: solubility at 10000 µM

>>> result("C[S@](=O)(=Nc1ccc(C(F)(F)F)cc1)c1ccccc1")
"20 µg/mL"
>>> result("CS(=O)(=Nc1ccc(C(F)(F)F)cc1)c1cccnc1 (configuration not stated)")
"47 µg/mL"
>>> result("O=S1(=Nc2ccc(F)cc2)CCCCC1")
"> 46 µg/mL"
>>> result("CNS(C)(=O)=Nc1ccc(C(F)(F)F)cc1 (configuration not stated)")
"> 54 µg/mL"
>>> result("N#Cc1ccc(N=S2(=O)CCCCC2)cc1")
"45 µg/mL"
>>> result("O=S1(=Nc2ccc(C(F)(F)F)cc2)CCCCC1")
"51 µg/mL"
>>> result("CS(=O)(=O)c1ccc(C(F)(F)F)cc1")
"> 47 µg/mL"
>>> result("O=S1(=Nc2cc(C(F)(F)F)cc(C(F)(F)F)c2)CCCCC1")
"< 1 µg/mL"
>>> result("NC(=O)c1ccc(C(F)(F)F)cc1")
"> 44 µg/mL"
>>> result("CC(C)(C)S(C)(=O)=Nc1ccc(C(F)(F)F)cc1 (configuration not stated)")
"22 µg/mL"
>>> result("CC(C)(C)OC(=O)Nc1ccc(C(F)(F)F)cc1")
"< 1 µg/mL"
>>> result("CS(=O)(=Nc1ccc(C(F)(F)F)cc1)C1CCOCC1 (configuration not stated)")
"46 µg/mL"
>>> result("CN(C)S(=O)(=O)c1ccc(C(F)(F)F)cc1")
"47 µg/mL"
>>> result("O=S1(=Nc2cccnc2)CCCCC1")
"> 75 µg/mL"
>>> result("CS(=O)(=O)Nc1ccc(C(F)(F)F)cc1")
"47 µg/mL"
>>> result("O=S1(=Nc2ccc(C(F)(F)F)cc2)CCOCC1")
"> 57 µg/mL"
>>> result("CS(C)(=O)=NC(=O)c1ccc(C(F)(F)F)cc1")
"> 53 µg/mL"
>>> result("CC(C)(C)OC(=O)c1ccc(C(F)(F)F)cc1")
"7 µg/mL"
>>> result("CN(c1ccc(C(F)(F)F)cc1)S(C)(=O)=O")
"46 µg/mL"
>>> result("CC(C)(C)NC(=O)Nc1ccc(C(F)(F)F)cc1")
"< 1 µg/mL"
>>> result("O=S1(c2ccc(C(F)(F)F)cc2)=NCCCC1 (configuration not stated)")
"> 59 µg/mL"
>>> result("O=S1(=Nc2ccc(C(F)(F)F)cc2)CCCC1")
"50 µg/mL"
>>> result("Cn1cc(N=S2(=O)CCCCC2)cn1")
"39 µg/mL"
>>> result("CNS(=O)(=O)c1ccc(C(F)(F)F)cc1")
"> 49 µg/mL"
>>> result("CC(C)(C)NC(=O)c1ccc(C(F)(F)F)cc1")
"14 µg/mL"
>>> result("CS(=N)(=O)c1ccc(C(F)(F)F)cc1 (configuration not stated)")
"> 50 µg/mL"
>>> result("O=S1(=Nc2ccc(C(F)(F)F)cc2)CCNCC1")
"> 57 µg/mL"

----------
A collection of compounds and their measured pKb
assay: Dissociation constant, pKb of the compound in aqueous/organic mixture at pH 2 to 12 by potentiometric titration method; type: physicochemical; conditions: buffer
MEASURED_PARAMETER: pKb

>>> result_number("N=S1(=Nc2ccc(C(F)(F)F)cc2)CCCCC1")
4
>>> result_number("CS(=N)(=O)c1ccc(C(F)(F)F)cc1 (centres undefined)")
2.5
>>> result_number("CNS(=N)(=O)c1ccc(C(F)(F)F)cc1 (centres undefined)")
2.4
>>> result_number("O=S1(=N[C@H]2CC[C@@H](C(F)(F)F)CC2)CCCCC1")
5
